Test system: 653999-131-R-J2-PDC complex spheroids, growth % test/control
Assay: Anticancer human tumor 653999-131-R-J2-PDC patient-derived lung adenocarcinoma cell line growth inhibition [AhR]
Conditions: second compound 10 µM; first compound 0.01 µM; active compounds read low
Quick reference: viability, T/C of the listed items.
measure name: viability, T/C (%)

[
  {
    "compound": "CC1COCCN1c1cc(-c2ccnn2C)c2ccnc(-c3ccn[nH]3)c2n1 (stereo not drawn) + Cc1ccccc1N=Nc1ccc(NC(=O)c2ccnn2C)c(C)c1",
    "measure name": "viability, T/C",
    "readout units": "%",
    "value observed": 89.3
  },
  {
    "compound": "Nc1ncn(C2CC(O)C(CO)O2)c(=O)n1 (stereo not drawn) + Cc1ccccc1N=Nc1ccc(NC(=O)c2ccnn2C)c(C)c1",
    "measure name": "viability, T/C",
    "readout units": "%",
    "value observed": 78.7
  },
  {
    "compound": "CC[C@@]1(O)C(=O)OCc2c1cc1n(c2=O)Cc2cc3c(CN(C)C)c(O)ccc3nc2-1 + Cc1cncc(-c2nc(NCCc3c[nH]c4ccccc34)c3ncn(C(C)C)c3n2)c1",
    "measure name": "viability, T/C",
    "readout units": "%",
    "value observed": 39.3
  }
]

* * *

Test system: 653999-131-R-J2-PDC complex spheroids, growth % test/control
Test: Anticancer human tumor 653999-131-R-J2-PDC cell line growth inhibition [AhR];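 further: spheroids exposed to agents for seven days; 100% = DMSO vehicle control viability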
Conditions: second compound 0.1 µM; first compound 0.01 µM; active compounds read low
measure name: viability, T/C (%)

[
  {
    "compound": "CC[C@@]1(O)C(=O)OCc2c1cc1n(c2=O)Cc2cc3c(CN(C)C)c(O)ccc3nc2-1 + Cc1ccccc1N=Nc1ccc(NC(=O)c2ccnn2C)c(C)c1",
    "target desc": "653999-131-R-J2-PDC complex spheroids, growth % test/control",
    "readout units": "%",
    "value observed": 87.7
  },
  {
    "compound": "CC1COCCN1c1cc(-c2ccnn2C)c2ccnc(-c3ccn[nH]3)c2n1 (configuration not stated) + Cc1ccccc1N=Nc1ccc(NC(=O)c2ccnn2C)c(C)c1",
    "target desc": "653999-131-R-J2-PDC complex spheroids, growth % test/control",
    "readout units": "%",
    "value observed": 101
  },
  {
    "compound": "Nc1ncn(C2CC(O)C(CO)O2)c(=O)n1 (configuration not stated) + CC(CO)NC(=O)c1cc(-c2ccc(Cl)cc2)nn(-c2cnn(C)c2)c1=O",
    "target desc": "653999-131-R-J2-PDC complex spheroids, growth % test/control",
    "readout units": "%",
    "value observed": 110
  },
  {
    "compound": "CC1COCCN1c1cc(-c2ccnn2C)c2ccnc(-c3ccn[nH]3)c2n1 (configuration not stated) + CC(CO)NC(=O)c1cc(-c2ccc(Cl)cc2)nn(-c2cnn(C)c2)c1=O",
    "target desc": "653999-131-R-J2-PDC complex spheroids, growth % test/control",
    "readout units": "%",
    "value observed": 101
  },
  {
    "compound": "Cn1ncnc1C1c2n[nH]c(=O)c3cc(F)cc(c23)NC1c1ccc(F)cc1 (configuration not stated) + CC(CO)NC(=O)c1cc(-c2ccc(Cl)cc2)nn(-c2cnn(C)c2)c1=O",
    "target desc": "653999-131-R-J2-PDC complex spheroids, growth % test/control",
    "readout units": "%",
    "value observed": 101
  },
  {
    "compound": "Cn1ncnc1C1c2n[nH]c(=O)c3cc(F)cc(c23)NC1c1ccc(F)cc1 (configuration not stated) + Cc1cncc(-c2nc(NCCc3c[nH]c4ccccc34)c3ncn(C(C)C)c3n2)c1",
    "target desc": "653999-131-R-J2-PDC complex spheroids, growth % test/control",
    "readout units": "%",
    "value observed": 84.8
  },
  {
    "compound": "Cn1ncnc1C1c2n[nH]c(=O)c3cc(F)cc(c23)NC1c1ccc(F)cc1 (configuration not stated) + Cc1ccccc1N=Nc1ccc(NC(=O)c2ccnn2C)c(C)c1",
    "target desc": "653999-131-R-J2-PDC complex spheroids, growth % test/control",
    "readout units": "%",
    "value observed": 92.3
  },
  {
    "compound": "Nc1ncn(C2CC(O)C(CO)O2)c(=O)n1 (configuration not stated) + Cc1cncc(-c2nc(NCCc3c[nH]c4ccccc34)c3ncn(C(C)C)c3n2)c1",
    "target desc": "653999-131-R-J2-PDC complex spheroids, growth % test/control",
    "readout units": "%",
    "value observed": 86.1
  },
  {
    "compound": "CC1COCCN1c1cc(-c2ccnn2C)c2ccnc(-c3ccn[nH]3)c2n1 (configuration not stated) + Cc1cncc(-c2nc(NCCc3c[nH]c4ccccc34)c3ncn(C(C)C)c3n2)c1",
    "target desc": "653999-131-R-J2-PDC complex spheroids, growth % test/control",
    "readout units": "%",
    "value observed": 94.6
  },
  {
    "compound": "CC[C@@]1(O)C(=O)OCc2c1cc1n(c2=O)Cc2cc3c(CN(C)C)c(O)ccc3nc2-1 + Cc1cncc(-c2nc(NCCc3c[nH]c4ccccc34)c3ncn(C(C)C)c3n2)c1",
    "target desc": "653999-131-R-J2-PDC complex spheroids, growth % test/control",
    "readout units": "%",
    "value observed": 70
  },
  {
    "compound": "Nc1ncn(C2CC(O)C(CO)O2)c(=O)n1 (configuration not stated) + Cc1ccccc1N=Nc1ccc(NC(=O)c2ccnn2C)c(C)c1",
    "target desc": "653999-131-R-J2-PDC complex spheroids, growth % test/control",
    "readout units": "%",
    "value observed": 99.3
  },
  {
    "compound": "CC[C@@]1(O)C(=O)OCc2c1cc1n(c2=O)Cc2cc3c(CN(C)C)c(O)ccc3nc2-1 + CC(CO)NC(=O)c1cc(-c2ccc(Cl)cc2)nn(-c2cnn(C)c2)c1=O",
    "target desc": "653999-131-R-J2-PDC complex spheroids, growth % test/control",
    "readout units": "%",
    "value observed": 79
  }
]

These entries and their values trace back to PubChem BioAssay AID1919000.
